- SYSTEM: Neuropeptide Y receptor type 5 (Rattus norvegicus, UniProt Q63634)
- Sequence (Q63634 whole entry): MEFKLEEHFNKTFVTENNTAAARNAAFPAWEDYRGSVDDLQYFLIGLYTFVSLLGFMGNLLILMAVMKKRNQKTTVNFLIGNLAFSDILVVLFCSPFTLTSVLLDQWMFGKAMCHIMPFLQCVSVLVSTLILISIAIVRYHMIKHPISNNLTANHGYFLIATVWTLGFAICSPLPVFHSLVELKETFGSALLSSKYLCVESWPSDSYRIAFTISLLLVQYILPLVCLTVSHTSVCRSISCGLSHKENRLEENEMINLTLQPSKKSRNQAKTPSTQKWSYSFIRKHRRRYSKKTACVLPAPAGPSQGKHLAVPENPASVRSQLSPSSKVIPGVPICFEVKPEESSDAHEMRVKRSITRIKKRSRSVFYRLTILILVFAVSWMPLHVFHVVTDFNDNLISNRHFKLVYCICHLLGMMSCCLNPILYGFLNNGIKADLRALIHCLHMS
VALUE_TYPE: IC50
Form entry: enter the amount, then its unit.

### Prompt Please tell me: IC50 of "CCCCC(=O)N1CCC(CNc2nc3c(s2)CCOc2ccc(F)cc2-3)CC1" , system Neuropeptide Y receptor type 5 (Rattus norvegicus, UniProt Q63634)?
### Response 6 nM

====

- TEST_DETAILS: Concentration (30 mg/kg, p.o.) in rat plasma after 6 hours
- Type: ADME, organism-based
- ASSAY_CONDITIONS: plasma, po
So basically: concentration at 6 h at 100 ng/mL or higher? That is yes. Lower than 100 ng/mL? That is no.

### Prompt In plain terms: is recorded concentration at 6 h at least 100 ng/mL for "O=C(CN1CCCCC1)N1CCC(CNc2nc3c(s2)CCCc2ccc(F)cc2-3)CC1" ?
### Response yes

====

- SYSTEM: Neuropeptide Y receptor type 5 (Homo sapiens, UniProt Q15761)
- TEST_DETAILS: In vitro binding affinity against human neuropeptide Y5 receptor
Hi there, I'd appreciate the recorded IC50 for every entry that follows.
One number for each entry, in nM.

The cases that follow already have their IC50 on record.
COMPOUND | VALUE_TYPE | DATA_VALUE
COC(=O)N[C@H]1CC[C@H](CNc2nc3c(s2)CCCc2ccc(F)cc2-3)CC1 | IC50 | 2
COCC(=O)N1CCC(CNc2nc3c(s2)CCCc2ccc(F)cc2-3)CC1 | IC50 | 2
Cc1ccc2c(c1)-c1nc(NCC3CCN(C(=O)C(C)C)CC3)sc1CCO2 | IC50 | 5

Provide IC50 for all items below, preserving their order.
1. CN(C)CCCC(=O)N[C@H]1CC[C@H](CNc2nc3c(s2)CCCc2ccc(F)cc2-3)CC1
2. O=C(CNCC1CC1)N1CCC(CNc2nc3c(s2)CCCc2ccc(F)cc2-3)CC1
3. O=C(C1CCOC1)N1CCC(CNc2nc3c(s2)CCCc2ccc(F)cc2-3)CC1 (stereo not given)
4. CCCCC(=O)N1CCC(CNc2nc3c(s2)CCOc2ccc(C)cc2-3)CC1
5. Cc1ccc2c(c1)-c1nc(NCC3CCN(C(=O)c4ccccn4)CC3)sc1CCO2
6. O=C(c1ccccc1F)N1CCC(CNc2nc3c(s2)CCCc2ccc(F)cc2-3)CC1
7. O=C(C1CC1)N1CCC(CNc2nc3c(s2)CCCc2ccc(F)cc2-3)CC1

### Response
1. 290
2. 6
3. 1
4. 7
5. 25
6. 20
7. 2

====

- System: Rattus norvegicus
- TEST_DETAILS: Concentration (30 mg/kg, p.o.) in rat plasma after 2 hours
- Format: ADME, organism-based
- ASSAY_CONDITIONS: in vivo, po, 2 h
VALUE_TYPE: Concentration (ng/mL)
One number for each entry, in ng/mL.

### Prompt Param item = "O=C([C@@H]1CCCO1)N1CCC(CNc2nc3c(s2)CCCc2ccc(F)cc2-3)CC1" ; retrieve measured Concentration.
### Response 1600

====

- Test system: Rattus norvegicus
- TEST_DETAILS: Concentration (30 mg/kg, p.o.) in rat plasma after 6 hours
- Type: ADME, organism-based
- ASSAY_CONDITIONS: in vivo, po, 6 h
VALUE_TYPE: Concentration

### Prompt Param item = "O=C([C@H]1CCCO1)N1CCC(CNc2nc3c(s2)CCCc2ccc(F)cc2-3)CC1" ; retrieve measured Concentration.
### Response 220 ng/mL

====

- SYSTEM: UniProt:Q15761
- TEST_DETAILS: In vitro binding affinity against human neuropeptide Y5 receptor
Friendly reminder: IC50 below 40 nM is 1, at or above is -1.

Here's what some known entries look like.
COMPOUND | SYSTEM | ASSIGNED_CATEGORY
O=C(CN1CCCCC1)N1CCC(CNc2nc3c(s2)CCCc2ccccc2-3)CC1 | UniProt:Q15761 | 1
COCCC(=O)N1CCC(CNc2nc3c(s2)CCCc2ccc(F)cc2-3)CC1 | UniProt:Q15761 | 1
CC(C)C(=O)N1CCC(CNc2nc3c(s2)CCOc2cc(F)c(Cl)cc2-3)CC1 | UniProt:Q15761 | 1
CC(=O)C1(c2ccccc2)CCC(CC(=O)Nc2nc3c(s2)CCCc2ccc(F)cc2-3)CC1 (stereo not given) | UniProt:Q15761 | 1
CCCCC(=O)N1CCC(CNc2nc3c(s2)CCOc2cc(F)c(F)cc2-3)CC1 | UniProt:Q15761 | 1

### Prompt Does the reported IC50 of the following compound sit strictly below 40 nM? "Nc1nc2c(s1)-c1ccccc1Sc1ccccc1-2"
### Response -1

====

- SYSTEM: Neuropeptide Y receptor type 5 (Homo sapiens, UniProt Q15761)
- Sequence (Q15761 whole entry): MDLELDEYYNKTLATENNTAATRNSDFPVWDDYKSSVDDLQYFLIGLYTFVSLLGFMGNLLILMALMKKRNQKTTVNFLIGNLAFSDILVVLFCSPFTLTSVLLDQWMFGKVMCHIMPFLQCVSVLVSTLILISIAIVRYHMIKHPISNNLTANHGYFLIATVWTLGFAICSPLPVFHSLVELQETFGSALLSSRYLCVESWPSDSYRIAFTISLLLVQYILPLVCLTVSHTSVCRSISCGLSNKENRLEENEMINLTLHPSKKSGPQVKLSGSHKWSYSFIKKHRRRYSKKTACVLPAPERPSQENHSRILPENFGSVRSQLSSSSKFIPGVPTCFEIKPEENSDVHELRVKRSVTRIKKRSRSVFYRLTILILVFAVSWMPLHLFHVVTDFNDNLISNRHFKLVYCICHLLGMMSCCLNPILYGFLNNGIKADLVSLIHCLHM
- TEST_DETAILS: In vitro binding affinity against human neuropeptide Y5 receptor measured as Ca+ response
VALUE_TYPE: IC50 (µM)
Numbers only, in µM.

The cases that follow already have their IC50 on record.
COMPOUND_SMILES | SYSTEM | UNIT_ANNOTATION | IC50
Cc1ccc2c(c1)-c1nc(NCC3CCN(C(=O)[C@H]4CCCO4)CC3)sc1CCO2 | Neuropeptide Y receptor type 5 (Homo sapiens, UniProt Q15761) | µM | 0.04
CC(=O)N1CCC(CNc2nc3c(s2)CCCc2ccc(F)cc2-3)CC1 | Neuropeptide Y receptor type 5 (Homo sapiens, UniProt Q15761) | µM | 0.254
CCCCC(=O)N1CCC(CNc2nc3c(s2)CCOc2ccc(F)cc2-3)CC1 | Neuropeptide Y receptor type 5 (Homo sapiens, UniProt Q15761) | µM | 0.1

Let us examine a further case.
### Prompt Param item = "Cc1ccc2c(c1)-c1nc(NCC3CCN(C(=O)C(C)C)CC3)sc1CCO2" ; retrieve measured IC50.
### Response 0.061

====

Hi there, I'd appreciate the recorded concentration at 2 h for every entry that follows.
- TEST_DETAILS: Concentration (30 mg/kg, p.o.) in rat plasma after 2 hours
- Type: ADME, organism-based
- ASSAY_CONDITIONS: plasma, po
Give bare numbers, in ng/mL.

The cases that follow already have their concentration at 2 h on record.
COMPOUND | concentration at 2 h / ng/mL
O=C([C@@H]1CCCO1)N1CCC(CNc2nc3c(s2)CCOc2ccc(F)cc2-3)CC1 | 930
O=C([C@H]1CCCO1)N1CCC(CNc2nc3c(s2)CCOc2ccc(F)cc2-3)CC1 | 970
CC(=O)N1CCC(CNc2nc3c(s2)CCCc2ccc(F)cc2-3)CC1 | 950
O=C(C1CCOC1)N1CCC(CNc2nc3c(s2)CCCc2ccc(F)cc2-3)CC1 (centres undefined) | 540
Cc1ccc2c(c1)-c1nc(NCC3CCN(C(=O)C(C)C)CC3)sc1CCO2 | 840
CCCCC(=O)N1CCC(CNc2nc3c(s2)CCOc2ccc(F)cc2-3)CC1 | 740
O=C(CN1CCCCC1)N1CCC(CNc2nc3c(s2)CCCc2ccc(F)cc2-3)CC1 | 240
Cc1ccc2c(c1)-c1nc(NCC3CCN(C(=O)[C@H]4CCCO4)CC3)sc1CCO2 | 870

Let us examine a further case.
### Prompt Param item = "O=C([C@@H]1CCCO1)N1CCC(CNc2nc3c(s2)CCCc2ccc(F)cc2-3)CC1" ; retrieve measured concentration at 2 h.
### Response 1600
